# studyTarget: CYP2D6 (Homo sapiens, UniProt P10635)
# Sequence (P10635 whole entry): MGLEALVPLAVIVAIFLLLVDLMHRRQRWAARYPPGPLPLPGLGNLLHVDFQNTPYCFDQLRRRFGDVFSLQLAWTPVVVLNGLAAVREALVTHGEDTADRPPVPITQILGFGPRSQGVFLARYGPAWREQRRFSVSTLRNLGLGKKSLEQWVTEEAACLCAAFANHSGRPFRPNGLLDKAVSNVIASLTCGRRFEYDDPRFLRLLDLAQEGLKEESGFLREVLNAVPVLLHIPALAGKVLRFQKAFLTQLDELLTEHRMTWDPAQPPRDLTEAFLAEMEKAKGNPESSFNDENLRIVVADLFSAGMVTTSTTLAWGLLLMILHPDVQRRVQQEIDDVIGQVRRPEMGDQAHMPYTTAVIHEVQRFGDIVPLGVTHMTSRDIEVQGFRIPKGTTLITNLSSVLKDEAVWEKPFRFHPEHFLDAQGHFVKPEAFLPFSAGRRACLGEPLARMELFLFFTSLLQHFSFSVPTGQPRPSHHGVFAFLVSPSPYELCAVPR
# testProtocol: Inhibition of CYP2D6 (unknown origin) at 10 uM relative to control
# Assay type: ADME
metric: inhibition at 10 µM (%)
Your answer should be a plain number; it is taken to be in %.

Query: inhibition at 10 µM; subject: O=C1CO[C@H]2CCN(C(=O)N3CCC(Cc4ccc(C(F)(F)F)cc4)CC3)C[C@H]2N1 -12

====

# testProtocol: Oral bioavailability in Wistar rat at 5 mg/kg measured upto 24 hrs by LC-MS/MS analysis
# Assay type: ADME, organism-based
# protocolConditions: in vivo
metric: bioavailability (%)
Please state the figure in %; there is no need to write the unit.

Find the recorded bioavailability belonging to O=C1CO[C@H]2CCN(C(=O)N3CCC(Cc4ccc(C(F)(F)F)cc4)CC3)C[C@H]2N1 and report it. 115

====

# studyTarget: Monoglyceride lipase (Mus musculus, UniProt O35678)
# Sequence (O35678 whole entry): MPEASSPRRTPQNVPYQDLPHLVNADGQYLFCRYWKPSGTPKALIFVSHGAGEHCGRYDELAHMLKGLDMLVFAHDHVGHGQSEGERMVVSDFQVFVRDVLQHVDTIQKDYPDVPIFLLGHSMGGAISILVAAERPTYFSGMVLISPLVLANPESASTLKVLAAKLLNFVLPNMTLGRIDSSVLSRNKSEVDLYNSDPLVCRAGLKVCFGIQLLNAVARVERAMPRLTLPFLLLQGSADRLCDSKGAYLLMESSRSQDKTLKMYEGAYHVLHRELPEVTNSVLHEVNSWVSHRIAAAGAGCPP
metric: pIC50
Scale: pIC50 equals -log10([C]), with [C] in mol/L.

Record O=C1CO[C@H]2CCN(C(=O)N3CCC(Cc4ccc(C(F)(F)F)cc4)CC3)C[C@H]2N1 : what is its pIC50 with Monoglyceride lipase (Mus musculus, UniProt O35678)? 7.04

====

# testProtocol: Drug concentration in mouse CSF at 30 mg/kg, ip measured after 16 hrs
# Assay type: ADME, organism-based, Cerebrospinal fluid
# protocolConditions: read-out: Ct
metric: concentration at 16 h (nM)
Supply the numeric figure in nM, leaving out any unit text.

So what's the measured concentration at 16 h for this one? O=C1CO[C@H]2CCN(C(=O)N3CCC(Cc4ccc(C(F)(F)F)cc4)CC3)C[C@H]2N1 48

====

# testProtocol: Tmax in Wistar rat at 10 mg/kg, ip measured […] by LC-MS/MS analysis
# Format: ADME, organism-based
# protocolConditions: in vivo
metric: Tmax (min)
Give just the number in min; leave the unit off.

What value of measured Tmax is listed for O=C1CO[C@H]2CCN(C(=O)N3CCC(Cc4ccc(C(F)(F)F)cc4)CC3)C[C@H]2N1 ? 15

====

# testProtocol: Octanol-water partition coefficient, logD of the compound at pH 7.4 incubated for 1.5 hrs by shake flask based LC-UV/MS analysis
# Assay type: physicochemical
# protocolConditions: pH 7.4
metric: logD at 1.5 h
// return just the number, without any unit appended

// query logD at 1.5 h value for entry O=C1CSc2ccc(C(=O)N3CCC(Cc4ccc(C(F)(F)F)cc4)CC3)cc2N1 3.7

Data request, read-out logD at 1.5 h, for O=C1C[C@H]2CCN(C(=O)N3CCC(Cc4ccc(C(F)(F)F)cc4)CC3)C[C@H]2N1 3.2

Given the compound O=C1COc2ccc(C(=O)N3CCC(c4c[nH]c5ccccc45)CC3)cc2N1 , what is its reported logD at 1.5 h? 2.9

Need logD at 1.5 h, item O=C1COc2ccc(C(=O)N3CCC(C(c4ccc(F)cc4)c4ccc(F)cc4)CC3)cc2N1 3.8

What does the data say about its logD at 1.5 h? Entry: O=C1COc2ccc(C(=O)N3CCC(C(c4ccccc4)c4ccccc4)CC3)cc2N1 3.8

GET /values?readout=logD at 1.5 h&item= O=C1COc2ccc(C(=O)N3CCC(Cc4ccccc4)CC3)cc2N1 3.2

May I ask what logD at 1.5 h has been recorded for O=C1CO[C@H]2CCN(C(=O)N3CCC(Cc4ccc(C(F)(F)F)cc4)CC3)C[C@H]2N1 (racemic) ? 3.2

Recorded logD at 1.5 h for O=C(c1ccc2cn[nH]c2c1)N1CCC(Cc2ccc(C(F)(F)F)cc2)CC1 , please? 3.8

Would you kindly share the measured logD at 1.5 h for O=C1CO[C@@H]2CCN(C(=O)N3CCC(Cc4ccc(C(F)(F)F)cc4)CC3)C[C@@H]2N1 ? 3.3

====

# studyTarget: CYP2C9 (Homo sapiens)
# Sequence (P11712 whole entry): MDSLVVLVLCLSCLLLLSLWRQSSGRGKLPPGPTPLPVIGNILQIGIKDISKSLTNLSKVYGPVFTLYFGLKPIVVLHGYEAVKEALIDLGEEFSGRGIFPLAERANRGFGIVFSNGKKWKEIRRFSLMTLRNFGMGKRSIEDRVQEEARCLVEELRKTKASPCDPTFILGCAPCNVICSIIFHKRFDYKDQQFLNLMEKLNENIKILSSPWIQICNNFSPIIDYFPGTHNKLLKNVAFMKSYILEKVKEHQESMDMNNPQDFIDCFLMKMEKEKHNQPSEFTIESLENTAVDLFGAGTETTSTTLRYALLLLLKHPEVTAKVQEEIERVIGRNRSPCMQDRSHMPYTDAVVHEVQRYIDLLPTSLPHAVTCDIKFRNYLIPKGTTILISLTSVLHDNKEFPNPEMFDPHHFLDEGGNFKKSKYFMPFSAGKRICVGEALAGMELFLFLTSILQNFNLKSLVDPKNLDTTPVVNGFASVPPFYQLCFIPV
# testProtocol: Inhibition of CYP2C9 (unknown origin) at 10 uM relative to control
# Type: ADME
metric: inhibition at 10 µM (%)
The response must be a number in % with no trailing unit.

Form entry - test system: CYP2C9 (Homo sapiens); read-out: inhibition at 10 µM; compound: O=C1CO[C@H]2CCN(C(=O)N3CCC(Cc4ccc(C(F)(F)F)cc4)CC3)C[C@H]2N1 3

====

# testProtocol: AUClast in C57BL/6 mouse at 24 mg/kg, ip measured upto 7 hrs by LC-MS/MS analysis
# protocolConditions: in vivo
metric: AUC(0-t) at 7 h (ng·h/mL)
Numbers only; they are read as ng·h/mL.

For O=C1CO[C@H]2CCN(C(=O)N3CCC(Cc4ccc(C(F)(F)F)cc4)CC3)C[C@H]2N1 (racemic) , what is its reported AUC(0-t) at 7 h? 62100

====

# testProtocol: Volume of distribution at steady state in C57BL/6 mouse at 1.3 mg/kg, iv measured upto 7 hrs by LC-MS/MS analysis
# protocolConditions: in vivo, read-out: Vdss
metric: Vd (L/kg)
The reply should be a number in L/kg, with the unit left off.

For the compound O=C1CO[C@H]2CCN(C(=O)N3CCC(Cc4ccc(C(F)(F)F)cc4)CC3)C[C@H]2N1 (racemic) , what Vd is on record? 3

====

# testProtocol: Ratio of drug concentration in Wistar rat CSF to plasma at 10 mg/kg, ip measured upto 7 hrs by LC-MS/MS analysis
# Type: ADME, organism-based
metric: Kp at 7 h
Lab note: write the figure by itself, no unit.

Find the recorded Kp at 7 h belonging to O=C1CO[C@H]2CCN(C(=O)N3CCC(Cc4ccc(C(F)(F)F)cc4)CC3)C[C@H]2N1 and report it. 0.017

====

# testProtocol: Tmax in C57BL/6 mouse at 5.1 mg/kg, po measured upto 7 hrs by LC-MS/MS analysis
# protocolConditions: in vivo
metric: Tmax (h)
# number only, unit h dropped from output

What value of Tmax has been reported for the following compound? O=C1CO[C@H]2CCN(C(=O)N3CCC(Cc4ccc(C(F)(F)F)cc4)CC3)C[C@H]2N1 (racemic) 2.7

====

# studyTarget: CYP3A4 (Homo sapiens)
# Sequence (P08684 whole entry): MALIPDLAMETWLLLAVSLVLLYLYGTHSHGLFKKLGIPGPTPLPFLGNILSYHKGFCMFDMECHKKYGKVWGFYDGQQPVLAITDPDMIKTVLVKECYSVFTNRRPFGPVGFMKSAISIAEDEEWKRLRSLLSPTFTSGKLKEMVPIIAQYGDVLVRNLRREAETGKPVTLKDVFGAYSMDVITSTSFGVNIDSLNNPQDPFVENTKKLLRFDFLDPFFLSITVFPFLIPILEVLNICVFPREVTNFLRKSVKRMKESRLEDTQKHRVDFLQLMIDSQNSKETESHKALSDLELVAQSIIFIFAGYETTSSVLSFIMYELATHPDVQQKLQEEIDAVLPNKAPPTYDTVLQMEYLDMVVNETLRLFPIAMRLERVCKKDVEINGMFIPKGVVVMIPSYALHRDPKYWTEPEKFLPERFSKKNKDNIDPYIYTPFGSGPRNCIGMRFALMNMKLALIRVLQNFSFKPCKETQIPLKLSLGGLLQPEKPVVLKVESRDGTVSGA
# testProtocol: Inhibition of CYP3A4 (unknown origin) at 10 uM relative to control
# Type: ADME
metric: inhibition at 10 µM (%)
Give just the numeric value; % need not be written.

// returns reported inhibition at 10 µM for input O=C1CO[C@H]2CCN(C(=O)N3CCC(Cc4ccc(C(F)(F)F)cc4)CC3)C[C@H]2N1 -195

====

# testProtocol: Clearance in human microsomes
# Format: ADME, Microsome
metric: microsomal CLint

Form field: reported microsomal CLint of O=C1CO[C@H]2CCN(C(=O)N3CCC(Cc4ccc(C(F)(F)F)cc4)CC3)C[C@H]2N1 < 10 µL/min/mg

====

# studyTarget: Monoglyceride lipase (Homo sapiens)
# Sequence (Q99685 whole entry): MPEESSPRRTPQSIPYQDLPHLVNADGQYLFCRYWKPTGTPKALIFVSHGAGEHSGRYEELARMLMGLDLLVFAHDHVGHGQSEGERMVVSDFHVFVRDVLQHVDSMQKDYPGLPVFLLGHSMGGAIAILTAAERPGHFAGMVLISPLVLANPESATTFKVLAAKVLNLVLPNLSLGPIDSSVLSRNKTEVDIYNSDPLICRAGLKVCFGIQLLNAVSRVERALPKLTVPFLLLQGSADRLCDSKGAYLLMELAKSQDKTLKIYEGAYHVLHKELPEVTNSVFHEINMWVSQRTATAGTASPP
# testProtocol: Inhibition of human MAGL using native substrate by Rapidfire MS assay
# protocolConditions: read-out: IC50
Assignment: determine reported pIC50 for the given molecules.
// returns pIC50 (minus log10 of molar concentration), number only

Quick one: pIC50 for O=C(c1ccc2cn[nH]c2c1)N1CCC(Cc2ccc(C(F)(F)F)cc2)CC1 ? 6.02

Given the molecule O=C1COc2ccc(C(=O)N3CCC(c4c[nH]c5ccc(Cl)cc45)CC3)cc2N1 , what is its reported pIC50? 8.52

Value lookup for pIC50; key = O=C1COc2ccc(C(=O)N3CCC(c4c[nH]c5cc(Cl)ccc45)CC3)cc2N1 7.68

Looking for the measured pIC50 of O=C1CO[C@@H]2CCN(C(=O)N3CCC(Cc4ccc(C(F)(F)F)cc4)CC3)C[C@@H]2N1 , can you help? 5.66

# pIC50 lookup, item O=C1COc2ccc(C(=O)N3CCC(C(c4ccc(F)cc4)c4ccc(F)cc4)CC3)cc2N1 9.00

Could you tell me which pIC50 is on file for O=C1COc2ccc(C(=O)N3CCC(Cc4cccc(C(F)(F)F)c4)CC3)cc2N1 ? 7.34

Recorded pIC50 for O=C1COc2ccc(C(=O)N3CCC(Cc4ccccc4)CC3)cc2N1 , please? 7.12

Can you look up the measured pIC50 of O=C1COc2ccc(C(=O)N3CCC(C(c4ccccc4)c4ccccc4)CC3)cc2N1 for me? 9.00

====

# testProtocol: Free fraction in human plasma incubated for 5 hrs by equilibrium dialysis based LC-MS/MS analysis
# Type: ADME, cell-free
metric: fraction unbound at 5 h
Please reply with the number alone, leaving off any unit.

Which fraction unbound at 5 h is reported for this molecule? O=C1COc2ccc(C(=O)N3CCC(Cc4ccc(C(F)(F)F)cc4)CC3)cc2N1 0.005

Which value of fraction unbound at 5 h has been reported for O=C1CO[C@H]2CCN(C(=O)N3CCC(Cc4ccc(C(F)(F)F)cc4)CC3)C[C@H]2N1 in the records? 0.043
